Assay summary: Crystallisation peak temperature on heating (Tn), DSC
Format: physicochemical
Experimental setup: PET I.V. 0.73 + 1% salt, 2-roll mill 300 °C 2 min; 10 °C/minute
Quantity: Tn(composition)-Tn(polyester) (°C)

[[record]]
compound = "O=C(O)c1ccccc1 [sodium benzoate, reference compound]"
reported_value = 27

[[record]]
compound = "CC(C)(C)c1ccc(C(=O)[O-])cc1.[Na+] [sodium para-tert-butylbenzoate, reference compound]"
reported_value = 19

[[record]]
compound = "O=C([O-])c1cc(O)cc(O)c1.[Na+] [sodium 3,5-dihydroxybenzoate]"
reported_value = 7

[[record]]
compound = "O=C([O-])c1c(O)cccc1O.[Na+] [sodium 2,6-dihydroxybenzoate]"
reported_value = 24

